// provenance: the array DNA melting data of Ke et al. (doi:10.1101/2024.01.08.574731)

experiment: melting temperature; fluorescence melt of hairpins on a sequencing array, two-state fit, raised by 9.35 °C to match UV melts; conditions: sodium 0.088 M
Measured quantity: Tm (°C)
Only the number, expressed in °C, is required.

The reported value for GCGATGCGAAAGCAGGGC ((..(((....)))..)) in terms of Tm is 61.4

For GCAAAGCGAAAGCGATGC (((..((....))..))) the sequence record lists Tm as 61.7

GET /value?item= GACCACGGAAACATGGTC (((((.(....).))))) &field=Tm returns 43.4

Please fill in: Tm reported for GCACGCGAAAGCGGTTGC ((((((....)))..))) = 49.5

// Tm lookup, sequence = GATCGGACTACCGATC ((((((....)))))) , result: 55.6
